system: cAMP-dependent protein kinase catalytic subunit alpha (Bos taurus)
experiment: PKA assay
condition.set: pH 8.5; 37 °C
measure: IC50

Q: Name the reported IC50 value associated with the compound Cn1cc(C2=C(c3cn(Cc4ccccc4)c4ccccc34)C(=O)NC2=O)c2ccccc21
Result: > 100 µM
